Consider the following compounds; for each one, report its IC50.
# target: Polybromodomain-1 BromoDomain-5 (PB1-BD5) (Homo sapiens, UniProt Q86U86)
# Sequence (Q86U86 645-766): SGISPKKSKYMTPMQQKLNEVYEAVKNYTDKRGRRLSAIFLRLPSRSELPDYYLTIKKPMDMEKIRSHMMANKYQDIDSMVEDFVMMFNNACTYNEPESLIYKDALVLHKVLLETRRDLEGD
# assayExplanation: biochemical
Give the quantity in nM, number only.

State its IC50: Nc1nnc(-c2ccccc2O)cc1C1CCN(Cc2ccccc2)CC1
44.8

State its IC50: CC(c1ccccc1)n1cc(-c2cc(-c3ccccc3O)nnc2N)cn1 (stereo not shown)
2.5

State its IC50: Nc1nnc(-c2ccccc2O)cc1N1C[C@H]2CN(Cc3ccccc3)C[C@H]2C1
18.2

State its IC50: Nc1nnc(-c2ccccc2O)cc1OCCc1ccccc1
8.8

State its IC50: Nc1nnc(-c2ccccc2O)cc1C1CCN(S(=O)(=O)c2ccccc2)C1 (stereo not shown)
268

State its IC50: CC1CN(c2cc(-c3ccccc3O)nnc2N)CCN1C(=O)C(C)(C)C (stereo not shown)
6.8

State its IC50: Nc1nnc(-c2ccccc2O)cc1N1CCOCC1
20.9

State its IC50: C[C@H](Oc1cc(-c2ccccc2O)nnc1N)c1ccccc1
9.6

State its IC50: CC(COc1cc(-c2ccccc2O)nnc1N)c1ccccc1 (stereo not shown)
5.3

State its IC50: CC(Cc1ccccc1)Oc1cc(-c2ccccc2O)nnc1N (stereo not shown)
29.2
